For each record, write down the corresponding MOR α ± SEM.
target: human recombinant MOR (Homo sapiens); construct: expressed in transfected cells; host or cells: CHO cells (gift from Prof. Girolamo Calo', Ferrara University); experiment: Calcium mobilization assay, CHO MOR cells with Gαqi5; assay type: cell-based; conditions: intrinsic activity: Emax of ligand / Emax of dermorphin
Sequence (P35372 whole entry): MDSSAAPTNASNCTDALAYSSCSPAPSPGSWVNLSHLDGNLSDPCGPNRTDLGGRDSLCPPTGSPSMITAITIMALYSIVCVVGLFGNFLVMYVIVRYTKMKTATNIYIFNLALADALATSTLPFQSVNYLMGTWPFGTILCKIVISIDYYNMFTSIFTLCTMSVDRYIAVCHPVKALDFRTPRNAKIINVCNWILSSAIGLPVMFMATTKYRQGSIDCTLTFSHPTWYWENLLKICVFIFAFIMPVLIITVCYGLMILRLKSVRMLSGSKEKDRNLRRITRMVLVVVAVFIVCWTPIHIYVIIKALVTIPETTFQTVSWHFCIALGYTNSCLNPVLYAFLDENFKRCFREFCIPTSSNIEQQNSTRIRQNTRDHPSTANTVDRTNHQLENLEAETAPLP
Numbered stars: 1 amine (or outer) side, 2 acyl side, 3 side chain; on linkers, the order of the positions; unused ones are H or OH. Square brackets hold non-standard residues; d marks the D form. Peptide text beside a SMILES is read from it. * marks the point of attachment. X3 = O=C(c1c(OCCN[*:1])c(-c2ccccc2)nc2ccccc12)[*:2]; X1 = O=C1[C@@H](N[*:1])Cc2ccccc2CN1CCC(=O)[*:2]; NH(1S-phenylpropyl) = CC[C@H](N*)c1ccccc1; Dmt = Cc1cc(O)cc(C)c1C[C@H](N)C(=O)O; 4Amb = NCc1ccc(C(=O)O)cc1; Ac5c = NC1(C(=O)O)CCCC1; X2 = C(CN*)CN1CCOCC1
Give the figure by itself; no unit, no explanation.

Reported MOR α ± SEM, compound Cc1cc(O)cc(C)c1C[C@H](N)C(=O)N[C@H](CCCNC(=N)N)C(=O)N[C@@H](Cc1ccccc1)C(=O)N[C@@H](CCCCN)C(=O)N[C@@H](CC(=O)O)C(=O)N[C@@H](Cc1ccc(O)cc1)C(=O)N[C@H](Cc1c[nH]c2ccccc12)C(=O)N[C@H](C(=O)N[C@H](Cc1c[nH]c2ccccc12)C(=O)N[C@H](Cc1c[nH]c2ccccc12)C(=O)N[C@@H](CCCCN)C(N)=O)C(C)C [SBL-OPNK-4] (H-[Dmt][dR]FKDY[dW]V[dW][dW]K-NH2) : ____ 0.74

Reported MOR α ± SEM, compound Cc1cc(O)cc(C)c1C[C@H](N)C(=O)N[C@H](CCCNC(=N)N)C(=O)N[C@H]1Cc2ccccc2CN(CCC(=O)NCc2ccc(C(=O)NC3(C(=O)N[C@H](Cc4ccccc4)C(=O)NCCCN4CCOCC4)CCCC3)cc2)C1=O [SBL-OPNK-7] (H-[Dmt][dR][X1][4Amb][Ac5c][dF]-X2) : ____ 0.89

Reported MOR α ± SEM, compound Cc1cc(O)cc(C)c1C[C@H](N)C(=O)N[C@H](CCCNC(=N)N)C(=O)N[C@H]1Cc2ccccc2CN(CCC(=O)N[C@@H](CC(=O)O)C(=O)N[C@@H](Cc2ccc(O)cc2)C(=O)N[C@H](Cc2c[nH]c3ccccc23)C(=O)N[C@H](C(=O)N[C@H](Cc2c[nH]c3ccccc23)C(=O)N[C@H](Cc2c[nH]c3ccccc23)C(=O)N[C@@H](CCCCN)C(N)=O)C(C)C)C1=O [SBL-OPNK-5] (H-[Dmt][dR][X1]DY[dW]V[dW][dW]K-NH2) : ____ 0.91

Reported MOR α ± SEM, compound CC[C@H](NC(=O)c1c(OCCNC(=O)[C@H](CCCCN)NC(=O)[C@H](Cc2ccccc2)NC(=O)[C@@H](CCCNC(=N)N)NC(=O)[C@@H](N)Cc2c(C)cc(O)cc2C)c(-c2ccccc2)nc2ccccc12)c1ccccc1 [SBL-OPNK-8] (H-[Dmt][dR]FK[X3]-{NH(1S-phenylpropyl)}) : ____ 0.65
